Test system: AgHof1
Protocol details: SPOT peptide array binding signal intensity (averaged, normalized) (arbitrary units (background-subtracted, floor 0; scale differs between SH3 domains)); higher = stronger binding of the SH3 domain to the peptide
Observable: SPOT peptide array binding signal intensity
Numbers only.

Here's what some known entries look like.
[[record]]
binder = "NRPAIRIPSLKKPAL"
assay_result = 111

[[record]]
binder = "RVRKTHVPASKRPSG"
assay_result = 7

[[record]]
binder = "SSSSSPPPLPTRRDH"
assay_result = 59


Kindly give each listed record's SPOT peptide array binding signal intensity.
1. KDKSRPPRPPPKPLH
2. QQEQNTPPLPPKPKS
3. NPTKSPPPPPSPSTM

Output:
55.8
760
7
